test: Human HepG2 cell viability assay in 384 well format; format: toxicity, cell-based; parameters: dose 125 nL, time 70.5 hour; concentration not given beside the values; settings: HepG2 cells, read-out: Inhibition
endpoint: cytotoxicity at 70.5 h (%)
Entry rule: numbers only, all in %.

input: Please look up its cytotoxicity at 70.5 h: CC1CN(C(=O)NCCn2ccnc2)CCO1 (configuration not stated)
output: -1.49

input: Please look up its cytotoxicity at 70.5 h: CC(c1ccc(Br)cc1)N1CCCN(C(N)=O)CC1 (configuration not stated)
output: -5.26

input: Please look up its cytotoxicity at 70.5 h: CC(C(=O)N1CCN(c2cnccn2)CC1)n1cncn1 (configuration not stated)
output: -4.32

input: Please look up its cytotoxicity at 70.5 h: Cc1nc(N2CCCC2)nc2c1CCN(Cc1ccco1)CC2
output: -16.4

input: Please look up its cytotoxicity at 70.5 h: COc1cc(N2C[C@@H]3COC[C@]3(COc3ccccn3)C2)ncn1
output: -11.5

input: Please look up its cytotoxicity at 70.5 h: Cc1cnn(CC2CCCN2Cc2cc(=O)n3ccccc3n2)c1 (configuration not stated)
output: -5.58

input: Please look up its cytotoxicity at 70.5 h: O=C(CCc1ccc2c(c1)OCO2)N1CCCCC1Cn1cccn1 (configuration not stated)
output: -8.55

input: Please look up its cytotoxicity at 70.5 h: Cn1cc(CN2CCCn3cnc(COCc4ccco4)c3C2)cn1
output: 3.06

input: Please look up its cytotoxicity at 70.5 h: COCCOc1ccccc1C(=O)N(C)Cc1ncc(C)c(OC)c1C
output: -5.65

input: Please look up its cytotoxicity at 70.5 h: Oc1cc(C2CCCCN2C2CCCC2)nc(-c2ccncc2)n1 (configuration not stated)
output: -14.1

input: Please look up its cytotoxicity at 70.5 h: COCc1noc(-c2cc(Cl)c3c(c2)OCO3)n1
output: -19.3

input: Please look up its cytotoxicity at 70.5 h: CCc1nc(C)sc1CN1CCc2[nH]nc(-c3ccc(F)c(F)c3)c2C1
output: -5.32

###

assay: Human HepG2 cell viability assay in 384 well format; type: toxicity, cell-based; set-up: dose 125 nL, time 70.5 hour; concentration not given beside the values; conditions: HepG2 cells, read-out: Inhibition
endpoint: cytotoxicity at 70.5 h (%)
Entry rule: numbers only, all in %.

Here is how some compounds turned out for cytotoxicity at 70.5 h.
compound	cytotoxicity at 70.5 h [%]
CCCN(CC(F)(F)F)C(=O)c1cc(F)cc2[nH]cnc12	0.747
NCCn1cc(C(=O)NCc2ccccc2Cn2cccn2)nn1	-6.05
CC(C)(C)CN1CCCC12CCN(S(=O)(=O)c1ccccc1)C2 (stereo unspecified)	-2.83

input: Please look up its cytotoxicity at 70.5 h: CSCCC(NC(=O)c1ccc2ccccc2n1)C(=O)NC1CC1 (stereo unspecified)
output: -8.01

input: Please look up its cytotoxicity at 70.5 h: O=C(NC1CCCN(c2ncccn2)C1)c1cn2ccccc2n1 (stereo unspecified)
output: -6.6

input: Please look up its cytotoxicity at 70.5 h: O=C(CCCc1ccccn1)Nc1cccc(N2CCCNC2=O)c1
output: -0.166

input: Please look up its cytotoxicity at 70.5 h: CN1CCN(c2ncc(CNCCCc3cccc(F)c3)cn2)CC1
output: 25.4

input: Please look up its cytotoxicity at 70.5 h: Nc1nc2c(c(N3CCOCC3)n1)CCN(C(=O)c1ccc[nH]1)CC2
output: -7.85

input: Please look up its cytotoxicity at 70.5 h: COc1ccccc1Cc1cc(O)nc(NC(C)CN(C)C)n1 (stereo unspecified)
output: 2.81

input: Please look up its cytotoxicity at 70.5 h: Cc1ncsc1CCN1CCC(N(C)Cc2ncc(C(C)C)o2)C1 (stereo unspecified)
output: 38.4

input: Please look up its cytotoxicity at 70.5 h: Cc1nc(C2CCCN(C(=O)c3cc(Cl)c4c(c3)OCO4)C2)no1 (stereo unspecified)
output: -5.22

input: Please look up its cytotoxicity at 70.5 h: Cc1ccccc1CS(=O)(=O)CC(=O)N(C)Cc1ccccc1F
output: -1.24

input: Please look up its cytotoxicity at 70.5 h: Cc1ccccc1C(C(=O)O)N(C)CC1CCOCC1 (stereo unspecified)
output: -2.17

input: Please look up its cytotoxicity at 70.5 h: COc1cccc(Cc2nnc(SC3CCOC3=O)o2)c1 (stereo unspecified)
output: -5.61

input: Please look up its cytotoxicity at 70.5 h: CCN(CC)[C@@H]1CN(S(=O)(=O)c2cn(C)cn2)[C@@H]2CCCO[C@H]12
output: 26.4

input: Please look up its cytotoxicity at 70.5 h: N#Cc1cc(S(N)(=O)=O)ccc1NC1CCc2cc(Cl)ccc21 (stereo unspecified)
output: -11.2

input: Please look up its cytotoxicity at 70.5 h: CS(=O)(=O)N1CCN(c2ccnc(N3CCCCC3)n2)CC1
output: -6.15

input: Please look up its cytotoxicity at 70.5 h: CC(C)c1nc(CN(C)CC2CCN(CCO)CC2)no1
output: -5.69

input: Please look up its cytotoxicity at 70.5 h: CC(Nc1ncnc2sccc12)c1cnn(C)c1 (stereo unspecified)
output: -12.3

input: Please look up its cytotoxicity at 70.5 h: CC(C)NC(=O)[C@H]1C[C@@H]2[C@@H](C1)OCCN2Cc1ccco1
output: -8.12

input: Please look up its cytotoxicity at 70.5 h: O=C(NCc1ccc2c(c1)OCO2)c1ccc(N2CCCCC2)nn1
output: 12.8

###

Listing of recorded cytotoxicity at 70.5 h by entry.
test: Human HepG2 cell viability assay in 384 well format; assay type: toxicity, cell-based; parameters: dose 125 nL, time 70.5 hour; concentration not given beside the values; settings: HepG2 cells, read-out: Inhibition
Entry rule: numbers only, all in %.

compound	quantity unit	cytotoxicity at 70.5 h
CSCC[C@@H](CO)Nc1ccc(-c2nc(-c3ccccc3C)no2)cn1	%	-6.4
CN(C)C(=O)c1cccnc1SCc1ccccc1C#N	%	-4.31
CCc1c(C)nn2c(O)cc(C3CCN(C(=O)C4CC4)C3)nc12 (stereo unspecified)	%	-6
CN(C)C(=O)CN1C(=O)C[C@@H]2[C@@H]1CCN2Cc1cccc(C#N)c1	%	6.8
CCC(C)(C)NC(=O)CSCc1ccc(S(=O)(=O)N(C)C)o1	%	-9.79
O=C1[C@H]2CC[C@H](CN(Cc3nnc(C4CC4)o3)C2)N1Cc1cscn1	%	18.5

input: Please look up its cytotoxicity at 70.5 h: CN(C)c1ncccc1CNC(=O)N1CCCC1c1ccsc1 (stereo unspecified)
output: -16.3

input: Please look up its cytotoxicity at 70.5 h: CCN(CC)C(CNCc1ccc(O)cc1)c1ccco1 (stereo unspecified)
output: 27

input: Please look up its cytotoxicity at 70.5 h: CC(C)CCN1C[C@@H]2OCCN(c3ncc(F)cn3)[C@@H]2C1
output: -4.42

input: Please look up its cytotoxicity at 70.5 h: Cc1ccc(CNC(=O)N2CCCCC2CCNS(C)(=O)=O)cc1 (stereo unspecified)
output: -8.15

input: Please look up its cytotoxicity at 70.5 h: Cc1ccc2[nH]c(CO[C@H]3CN(c4ccc(C#N)cn4)C[C@H]3F)nc2c1
output: -3.04

###

experiment: Human HepG2 cell viability assay in 384 well format; assay type: toxicity, cell-based; design: dose 125 nL, time 70.5 hour; concentration not given beside the values; settings: HepG2 cells, read-out: Inhibition
endpoint: cytotoxicity at 70.5 h (%)
Entry rule: numbers only, all in %.

compound	endpoint	recorded value
CCCC(C)N(C)Cc1nnc(-c2ccc(Br)s2)o1 (stereo unspecified)	cytotoxicity at 70.5 h	-4.09
CC(=O)Nc1ncc(S(=O)(=O)Nc2ccccc2)s1	cytotoxicity at 70.5 h	-11.1
CN(CC(=O)N1CC(C)(C)[C@](O)(C2CC2)C1)Cc1cccnc1	cytotoxicity at 70.5 h	-3.42
O=C(C1CCCC1)N1C[C@@H]2CCN(c3cccnc3)C[C@@H]2C1	cytotoxicity at 70.5 h	-11.4
CC1CCN(S(=O)(=O)NCC2CCOc3ccccc3C2)CC1 (stereo unspecified)	cytotoxicity at 70.5 h	-7.61
COc1c(C2CCCN2C(=O)c2scnc2C)c(C)nn1C (stereo unspecified)	cytotoxicity at 70.5 h	-10.9
NS(=O)(=O)CCNC(=O)C1(c2ccc(Br)cc2)CC1	cytotoxicity at 70.5 h	-10.5
CCCC(=O)Nc1cc2c(cc1OC)NC(=O)CC2c1ccc(CC)o1 (stereo unspecified)	cytotoxicity at 70.5 h	22.1

input: Please look up its cytotoxicity at 70.5 h: Cn1cc(CN2CC[C@H]3OCC[C@@H](C(=O)NC4CCCC4)[C@@H]3C2)cn1
output: -17.5

input: Please look up its cytotoxicity at 70.5 h: Cc1nc(CNC(C)c2ccc(S(=O)(=O)N(C)C)cc2)no1 (stereo unspecified)
output: -2.76

input: Please look up its cytotoxicity at 70.5 h: CCn1ncnc1C(C)NC(=O)C1CCN(C(C)C)CC1 (stereo unspecified)
output: -8.56
